Target: 5-hydroxytryptamine receptor 2A (Homo sapiens, UniProt P28223)
Sequence (P28223 whole entry): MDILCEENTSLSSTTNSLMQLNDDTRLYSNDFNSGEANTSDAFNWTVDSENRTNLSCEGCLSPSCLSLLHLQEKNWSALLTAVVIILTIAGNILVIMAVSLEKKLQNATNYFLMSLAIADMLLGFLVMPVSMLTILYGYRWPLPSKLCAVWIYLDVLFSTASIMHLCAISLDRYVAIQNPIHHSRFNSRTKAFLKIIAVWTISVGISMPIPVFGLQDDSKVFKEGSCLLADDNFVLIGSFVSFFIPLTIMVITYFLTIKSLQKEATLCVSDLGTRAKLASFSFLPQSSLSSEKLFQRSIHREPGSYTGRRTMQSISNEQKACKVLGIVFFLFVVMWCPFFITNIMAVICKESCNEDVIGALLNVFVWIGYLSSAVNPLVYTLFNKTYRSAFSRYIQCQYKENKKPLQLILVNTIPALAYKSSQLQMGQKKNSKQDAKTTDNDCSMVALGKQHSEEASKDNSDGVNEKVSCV
Test: Displacement of [3H]ketanserin from human 5-HT2A receptor expressed in HEK293 cells at 10 uM incubated for 1 hr relative to control
Assay type: cell-based
Checkbox rule: Activity lower than 20% = fulfilled; Activity not lower than 20% = not fulfilled.

Past entries and their recorded results:
Quick check: Activity of "OC[C@@]12C[C@@H]1[C@@H](n1cnc3c(N[C@H](C4CCC4)C4CC4)nc(I)nc31)[C@H](O)[C@@H]2O" under 20%?
not fulfilled

For "O[C@H]1[C@H](n2cnc3c(NC(C4CC4)C4CC4)nc(Cl)nc32)[C@H]2C[C@@]2(CF)[C@H]1O" , is the recorded Activity below the cut-off of 20%?
fulfilled

Is the reported Activity for "OC[C@@]12C[C@@H]1[C@@H](n1cnc3c(N[C@@H](C4CCC4)C4CC4)nc(I)nc31)[C@H](O)[C@@H]2O" strictly below 20%?
not fulfilled

Threshold test, Activity < 20%: "CCSC[C@@]12C[C@@H]1[C@@H](n1cnc3c(NC(C4CCCC4)C4CCCC4)nc(Cl)nc31)[C@H](O)[C@@H]2O"
not fulfilled

I wonder whether "CC(C)[C@@H](Nc1nc(I)nc2c1ncn2[C@H]1[C@H](O)[C@H](O)[C@]2(CO)C[C@H]12)C1CC1" has Activity below 20%. Can you tell?
fulfilled

# check: Activity < 20% for "CCCCSC[C@@]12C[C@@H]1[C@@H](n1cnc3c(NC(C4CCCC4)C4CCCC4)nc(Cl)nc31)[C@H](O)[C@@H]2O"
not fulfilled

Others:
Item "Nc1nc(I)nc2c1ncn2[C@H]1[C@H](O)[C@H](O)[C@]2(CO)C[C@H]12" : Activity beneath 20%, strictly?
fulfilled

# strict comparison: is reported Activity < 20%? input = "CSC[C@@]12C[C@@H]1[C@@H](n1cnc3c(N)nc(I)nc31)[C@H](O)[C@@H]2O"
fulfilled

Regarding "COc1ccc(SC[C@@]23C[C@@H]2[C@@H](n2cnc4c(NC(C5CCCC5)C5CCCC5)nc(Cl)nc42)[C@H](O)[C@@H]3O)cc1OC" , kindly confirm whether its Activity is beneath 20%.
not fulfilled

Determine if "CCOC(=O)[C@@]12C[C@@H]1[C@@H](n1cnc3c(N[C@H](C4CCC4)C4CC4)nc(I)nc31)[C@H](O)[C@@H]2O" shows Activity strictly lower than 20%.
fulfilled

Please determine if "Nc1nc(I)nc2c1ncn2[C@H]1[C@H](O)[C@H](O)[C@]2(CCl)C[C@H]12" is below 20% in terms of Activity.
fulfilled

# strict comparison: is reported Activity < 20%? input = "O[C@@H]1[C@H](O)[C@@H]2C[C@@H]2[C@H]1n1cnc2c(NC(C3CCCC3)C3CCCC3)nc(Cl)nc21"
not fulfilled

A record lists "OC[C@H]1O[C@@H](n2cnc3c(N[C@H](C4CCC4)C4CC4)nc(I)nc32)[C@H](O)[C@@H]1O" . Is its Activity below 20%?
fulfilled

Is the reported Activity for "O[C@H]1[C@H](n2cnc3c(NC(C4CCCC4)C4CCCC4)nc(Cl)nc32)[C@H]2C[C@@]2(CSc2ccccc2F)[C@H]1O" strictly below 20%?
not fulfilled

Please state whether Activity is below 20% for COCCN(CCOC)C(=O)[C@]12C[C@H]1[C@H](n1cnc3c(N)nc(Cl)nc31)[C@@H](O)[C@H]2O (single isomer, unassigned)
fulfilled
